Data provenance: ChEMBL document CHEMBL4033783

Assay: Clearance in iv dosed dog plasma
Format: ADME, organism-based, Canis lupus familiaris
readout: clearance (mL/min/kg)
Provide the reading as a plain figure in mL/min/kg.

NC(=O)c1cnc(N[C@H]2CCCNC2)c2cc(-c3cccc(F)c3)sc12
10
NC(=O)c1cnc(N[C@H]2CCCNC2)c2cc(-c3ccccc3)sc12
11

Shifting focus to the compound that follows.
Problem: Consider the compound `C[C@H]1NCCC[C@@H]1Nc1ncc(C(N)=O)c2sc(-c3ccccc3)cc12` and give its measured clearance.
Result: 10

---

Quick note: these are IC50 numbers for system: Voltage-gated inwardly rectifying potassium channel KCNH2 (Homo sapiens)
Quick note: give the figure in µM, leave out the unit.

Example cases with answers are listed next.
C[C@@H]1CC[C@H](Nc2ncc(C(N)=O)c3sc(-c4ccccc4)cc23)[C@H](C)N1 (racemic)
8.4
NC(=O)c1ccc(N[C@H]2CCCNC2)c2cc(-c3ccccc3)[nH]c12
11.6
NC(=O)c1ccc(N[C@H]2CCCNC2)c2cc(-c3ccc(Cl)cc3)[nH]c12
4.1
NC(=O)c1cnc(SC2CCCNC2)c2cc(-c3ccccc3)sc12 (racemic)
4.9
NC(=O)c1cnc(N[C@H]2CCCNC2)c2cc(-c3ccsc3)sc12
28
NC(=O)c1ccc(N[C@H]2CCCNC2)c2cc(-c3ccc(F)cc3)[nH]c12
6.7

Lab note: next compound to report on.
Problem: Entry `CN(c1ncc(C(N)=O)c2sc(-c3ccccc3)cc12)[C@H]1CCCNC1` , system Voltage-gated inwardly rectifying potassium channel KCNH2 (Homo sapiens): what IC50 was measured?
Result: 2.7

---

Test system: Liver
Assay: Intrinsic clearance in human liver microsomes
Type: ADME, microsome
readout: intrinsic clearance (CLint) (µL/min/mg)
Note: unit µL/min/mg is implicit; provide only the numeric part.

The examples below pair each entry with its known result.
CN(c1ncc(C(N)=O)c2sc(-c3ccccc3)cc12)[C@H]1CCCNC1
10
NC(=O)c1cnc(N[C@H]2CCCNC2)c2cc(-c3ccccc3)sc12
9.2
NC(=O)c1cnc(O[C@H]2CCCNC2)c2cc(-c3ccccc3)sc12
35
NC(=O)c1cnc(N[C@H]2CCCNC2)c2cc(-c3cccs3)sc12
9.1
NC(=O)c1cnc(N[C@H]2CCCNC2)c2cc(-c3ccsc3)sc12
29

Problem: Requested read-out intrinsic clearance (CLint), target or system Liver, entry `NC(=O)c1ccc(N[C@H]2CCCNC2)c2cc(-c3ccccc3)[nH]c12`
Result: 21

---

Target: Serine/threonine-protein kinase Chk1 (Homo sapiens)
Kindly apply the following: condition met if IC50 is less than 40 nM, condition not met in every other case.

Before answering, review these 5 worked examples.
NC(=O)c1cnc(N[C@H]2CCCNC2)c2cc(-c3cccc(F)c3)sc12
condition met
NC(=O)c1cnc(N[C@H]2CCCNC2)c2cc(-c3cccs3)sc12
condition met
NC(=O)c1cnc(N(CCO)[C@H]2CCCNC2)c2cc(-c3ccccc3)sc12
condition not met
NC(=O)c1cnc(O[C@H]2CCCNC2)c2cc(-c3ccccc3)sc12
condition not met
Cn1cc(-c2cc3c(N[C@H]4CCCNC4)ncc(C(N)=O)c3s2)cn1
condition met

Problem: Does this compound meet the criterion IC50 < 40 nM? `CCN(c1ncc(C(N)=O)c2sc(-c3ccccc3)cc12)[C@H]1CCCNC1`
Result: condition met

Problem: Criterion: IC50 strictly below 40 nM. Is it met by NC(=O)c1cnc(N[C@H]2CNCC[C@@H]2O)c2cc(-c3ccccc3)sc12 (racemic) ?
Result: condition met

Problem: Just wondering, is IC50 of `CN(c1ncc(C(N)=O)c2sc(-c3ccccc3)cc12)[C@H]1CCCNC1` below 40 nM?
Result: condition met

Problem: Take the compound `NC(=O)c1cnc(N[C@H]2CCCNC2)c2sc(-c3cccc(F)c3)cc12` and say whether its IC50 is less than 40 nM.
Result: condition not met

Problem: API: query returns whether the compound falls strictly under 40 nM in IC50. Query: `NC(=O)c1cnc(N[C@H]2CCCNC2)c2cc(-c3ccccc3)sc12`
Result: condition met

Problem: Given NC(=O)c1cnc(N[C@H]2CCCN[C@@H]2CCO)c2cc(-c3ccccc3)sc12 (racemic) , is recorded IC50 strictly lower than 40 nM?
Result: condition not met

Problem: Is it true that IC50 reported for `NC(=O)c1ccc(N[C@H]2CCCNC2)c2cc(-c3ccc(Cl)cc3)[nH]c12` is less than 40 nM?
Result: condition met

---

Biological target: Serine/threonine-protein kinase Chk1 (Homo sapiens)
Sequence (whole entry): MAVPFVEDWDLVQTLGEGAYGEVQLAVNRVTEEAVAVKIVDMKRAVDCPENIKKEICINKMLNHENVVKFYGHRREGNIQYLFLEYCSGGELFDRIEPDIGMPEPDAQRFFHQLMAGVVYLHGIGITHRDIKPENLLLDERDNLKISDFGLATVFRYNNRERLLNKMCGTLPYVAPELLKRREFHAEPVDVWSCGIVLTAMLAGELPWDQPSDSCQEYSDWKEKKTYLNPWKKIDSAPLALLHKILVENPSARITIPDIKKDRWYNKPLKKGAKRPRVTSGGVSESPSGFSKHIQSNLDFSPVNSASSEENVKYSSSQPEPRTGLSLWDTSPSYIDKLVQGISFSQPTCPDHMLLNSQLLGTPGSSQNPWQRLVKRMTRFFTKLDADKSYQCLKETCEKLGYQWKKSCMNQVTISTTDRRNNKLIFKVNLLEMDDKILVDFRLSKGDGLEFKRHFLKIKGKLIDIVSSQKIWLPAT
readout: PF
Kindly provide the number alone.

C[C@H]1NCCC[C@@H]1Nc1ncc(C(N)=O)c2sc(-c3ccccc3)cc12
124
NC(=O)c1cnc(N[C@H]2CCCNC2)c2cc(-c3cccc(F)c3)sc12
38

Problem: What measured PF goes with `NC(=O)c1cnc(N[C@H]2CCCNC2)c2cc(-c3ccccc3)sc12` ?
Result: 28

Problem: Requested field: PF. Item: `NC(=O)Nc1sc(-c2ccccc2)cc1C(=O)N[C@H]1CCCNC1`
Result: 67

---

Target: Serine/threonine-protein kinase Chk1 (Homo sapiens, UniProt O14757)
Sequence (O14757 whole entry): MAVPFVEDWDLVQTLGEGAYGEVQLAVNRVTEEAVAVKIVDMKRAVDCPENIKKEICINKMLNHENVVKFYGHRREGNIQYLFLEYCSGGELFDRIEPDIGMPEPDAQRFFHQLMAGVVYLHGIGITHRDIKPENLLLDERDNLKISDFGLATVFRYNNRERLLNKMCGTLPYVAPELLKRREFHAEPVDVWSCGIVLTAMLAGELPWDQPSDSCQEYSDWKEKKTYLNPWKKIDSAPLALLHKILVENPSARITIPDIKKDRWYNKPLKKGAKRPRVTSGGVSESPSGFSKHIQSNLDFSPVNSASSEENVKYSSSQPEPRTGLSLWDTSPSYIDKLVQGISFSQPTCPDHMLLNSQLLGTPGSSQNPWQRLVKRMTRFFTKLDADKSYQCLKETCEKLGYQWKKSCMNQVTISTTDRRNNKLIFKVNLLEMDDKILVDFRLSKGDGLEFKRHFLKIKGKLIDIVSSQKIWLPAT
readout: IC50 (nM)
# output: bare number, implied unit nM

Record excerpt, results attached:
C[C@H]1NCCC[C@@H]1Nc1ncc(C(N)=O)c2sc(-c3ccccc3)cc12
6
NC(=O)c1cnc(N[C@H]2CCCNC2)c2cc(-c3ccsc3)sc12
6
NC(=O)c1ccc(N[C@H]2CCCNC2)c2cc(-c3cccc(F)c3)[nH]c12
9
NC(=O)c1ccc(N[C@H]2CCCNC2)c2cc(-c3ccccc3)[nH]c12
31

Turning to the following compound.
Problem: Please look up its IC50: `CN1CCC[C@H](Nc2ncc(C(N)=O)c3sc(-c4ccccc4)cc23)C1`
Result: 140

---

Target or system Voltage-gated inwardly rectifying potassium channel KCNH2 (Homo sapiens, UniProt Q12809); recorded quantity pIC50.
The scale used: pIC50 is minus the common logarithm of the concentration in molar units.

CCN(c1ncc(C(N)=O)c2sc(-c3ccccc3)cc12)[C@H]1CCCNC1
5.62
NC(=O)c1ccc(N[C@H]2CCCNC2)c2cc(-c3cccc(F)c3)[nH]c12
5.11
NC(=O)c1cnc(N[C@H]2CCCNC2)c2cc(-c3ccccc3)sc12
4.71

Now take the following compound into account.
Problem: Fill in the recorded pIC50 for this compound, with Voltage-gated inwardly rectifying potassium channel KCNH2 (Homo sapiens, UniProt Q12809) as test system: `C[C@@H]1NCCC[C@@H]1Nc1ncc(C(N)=O)c2sc(-c3ccccc3)cc12`
Sequence (Q12809 whole entry): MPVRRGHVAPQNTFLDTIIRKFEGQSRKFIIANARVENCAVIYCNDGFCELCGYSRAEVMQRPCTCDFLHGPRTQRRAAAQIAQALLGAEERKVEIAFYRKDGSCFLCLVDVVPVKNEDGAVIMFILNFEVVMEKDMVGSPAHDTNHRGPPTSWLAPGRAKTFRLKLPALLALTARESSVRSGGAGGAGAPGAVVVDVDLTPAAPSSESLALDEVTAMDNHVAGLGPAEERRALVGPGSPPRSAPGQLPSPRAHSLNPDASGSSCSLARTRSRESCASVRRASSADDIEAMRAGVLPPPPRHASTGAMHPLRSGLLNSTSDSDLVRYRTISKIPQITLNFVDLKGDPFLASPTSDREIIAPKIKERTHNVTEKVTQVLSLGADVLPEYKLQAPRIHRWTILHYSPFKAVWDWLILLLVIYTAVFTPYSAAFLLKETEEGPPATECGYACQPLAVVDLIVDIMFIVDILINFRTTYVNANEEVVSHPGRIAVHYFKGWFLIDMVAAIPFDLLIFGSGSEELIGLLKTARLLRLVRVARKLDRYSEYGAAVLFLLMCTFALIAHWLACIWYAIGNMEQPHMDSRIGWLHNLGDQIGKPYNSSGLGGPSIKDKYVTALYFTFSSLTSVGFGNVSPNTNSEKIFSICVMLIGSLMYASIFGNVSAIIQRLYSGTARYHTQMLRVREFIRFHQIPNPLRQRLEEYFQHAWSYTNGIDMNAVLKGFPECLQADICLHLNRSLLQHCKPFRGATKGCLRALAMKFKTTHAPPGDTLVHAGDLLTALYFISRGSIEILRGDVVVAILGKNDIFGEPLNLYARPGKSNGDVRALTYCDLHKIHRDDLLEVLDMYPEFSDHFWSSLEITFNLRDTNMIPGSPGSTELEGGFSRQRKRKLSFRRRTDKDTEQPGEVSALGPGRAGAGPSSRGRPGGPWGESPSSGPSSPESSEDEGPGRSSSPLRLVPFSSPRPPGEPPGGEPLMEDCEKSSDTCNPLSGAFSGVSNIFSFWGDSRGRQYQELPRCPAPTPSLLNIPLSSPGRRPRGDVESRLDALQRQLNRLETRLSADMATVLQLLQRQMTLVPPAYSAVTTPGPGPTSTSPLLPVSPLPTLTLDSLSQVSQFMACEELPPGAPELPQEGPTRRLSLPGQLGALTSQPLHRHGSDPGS
Result: 5.23

---

Assay: Half life in iv dosed dog plasma
Type: ADME, organism-based, Canis lupus familiaris
readout: half-life (h)
Number in h, nothing else.

Consider the worked cases shown below.
NC(=O)c1cnc(N[C@H]2CCCNC2)c2cc(-c3ccccc3)sc12
5.4
NC(=O)c1cnc(N[C@H]2CCCNC2)c2cc(-c3cccc(F)c3)sc12
5.1

Problem: What does the record list as half-life for `C[C@H]1NCCC[C@@H]1Nc1ncc(C(N)=O)c2sc(-c3ccccc3)cc12` ?
Result: 9.4
